# ASSAYED TARGET: BTK (Homo sapiens, UniProt Q06187)
# Construct: endogenous in cells; host or cells: Ramos (ATCC CRL-1596)
# Sequence (Q06187 whole entry): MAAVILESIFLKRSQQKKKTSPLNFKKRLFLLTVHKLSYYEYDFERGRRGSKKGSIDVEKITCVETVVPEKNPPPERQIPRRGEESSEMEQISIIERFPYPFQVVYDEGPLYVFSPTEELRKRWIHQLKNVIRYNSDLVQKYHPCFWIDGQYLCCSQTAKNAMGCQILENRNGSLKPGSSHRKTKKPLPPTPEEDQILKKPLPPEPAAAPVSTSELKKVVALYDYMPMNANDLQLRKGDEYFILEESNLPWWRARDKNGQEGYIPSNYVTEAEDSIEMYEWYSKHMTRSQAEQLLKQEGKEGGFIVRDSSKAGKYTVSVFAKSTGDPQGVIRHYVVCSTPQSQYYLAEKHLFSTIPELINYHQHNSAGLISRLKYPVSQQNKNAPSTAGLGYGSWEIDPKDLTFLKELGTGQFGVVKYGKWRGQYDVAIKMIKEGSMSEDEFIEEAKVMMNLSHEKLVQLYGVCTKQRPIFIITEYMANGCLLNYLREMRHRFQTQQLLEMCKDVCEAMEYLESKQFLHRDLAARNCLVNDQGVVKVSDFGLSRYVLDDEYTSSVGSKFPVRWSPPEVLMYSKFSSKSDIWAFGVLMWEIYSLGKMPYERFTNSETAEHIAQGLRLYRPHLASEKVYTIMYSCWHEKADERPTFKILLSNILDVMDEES
# PROTOCOL DESCRIPTION: Cellular BTK HTRF Assay (BTK levels in Ramos cells)
# Format: cell-based
# TEST PARAMETERS: Ramos cells, 50,000 cells, incubated four hours at 37° C.; BTK levels by Cisbio Total-BTK HTRF relative to DMSO-treated cells
For each record, write down the corresponding DC50.

Consider the reported DC50 for these compounds:
COMPOUND	DC50
C[C@H]1CN(C(=O)[C@H]2C[C@@H](OCCNc3cccc4c3C(=O)N(C3CCC(=O)NC3=O)C4=O)C2)CCN1c1ccc(Nc2cc(-c3ccnc(N4CCn5c(cc6c5CC(C)(C)C6)C4=O)c3CO)cn(C)c2=O)nc1 (stereo partly drawn)	< 1 nM
Cn1cc(-c2ccnc(-n3ncc4cc(C(C)(C)C)cc(F)c4c3=O)c2CO)cc(Nc2cc3n(n2)CCN(C(=O)CCOCCOCCOCCNc2cccc4c2C(=O)N(C2CCC(=O)NC2=O)C4=O)C3)c1=O (stereo not drawn)	1 to 10 nM
Cn1cc(-c2ccnc(-n3ncc4cc(C(C)(C)C)cc(F)c4c3=O)c2CO)cc(Nc2cc3n(n2)CCN(C(=O)CCCc2cccc4c2CN(C2CCC(=O)NC2=O)C4=O)C3)c1=O (stereo not drawn)	10 to 1000 nM
C[C@H]1CN(C(=O)[C@H]2C[C@H](OCCCc3cccc4c3CN(C3CCC(=O)NC3=O)C4=O)C2)CCN1c1ccc(Nc2cc(-c3ccnc(N4CCn5c(cc6c5CC(C)(C)C6)C4=O)c3CO)cn(C)c2=O)nc1 (stereo partly drawn)	1 to 10 nM
C[C@@H]1CN(C(=O)CCOCCOCCOCCOCCCc2cccc3c2CN(C2CCC(=O)NC2=O)C3=O)CCN1c1ccc(Nc2cc(-c3ccnc(N4CCn5c(cc6c5CC(C)(C)C6)C4=O)c3CO)cn(C)c2=O)nc1 (stereo partly drawn)	1 to 10 nM
C[C@@H]1CN(CCOCCOCCOCCNc2cccc3c2C(=O)N(C2CCC(=O)NC2=O)C3=O)CCN1c1ccc(Nc2cc(-c3ccnc(N4CCn5c(cc6c5CC(C)(C)C6)C4=O)c3CO)cn(C)c2=O)nc1 (stereo partly drawn)	1 to 10 nM
C[C@H]1CN(C(=O)CCCc2cccc3c2CN(C2CCC(=O)NC2=O)C3=O)CCN1c1ccc(Nc2cc(-c3ccnc(N4CCn5c(cc6c5CC(C)(C)C6)C4=O)c3CO)cn(C)c2=O)nc1 (stereo partly drawn)	1 to 10 nM
C[C@H]1CN(C(=O)CN2CCN(CCCc3cccc4c3C(=O)N(C3CCC(=O)NC3=O)C4=O)CC2)CCN1c1ccc(Nc2cc(-c3ccnc(N4CCn5c(cc6c5CC(C)(C)C6)C4=O)c3CO)cn(C)c2=O)nc1 (stereo partly drawn)	1 to 10 nM

# batch size: 8; output DC50 per entry
1. Cn1cc(-c2ccnc(-n3ncc4cc(C(C)(C)C)cc(F)c4c3=O)c2CO)cc(Nc2cc3n(n2)CCN(C(=O)CCOCCCc2cccc4c2CN(C2CCC(=O)NC2=O)C4=O)C3)c1=O (stereo not drawn)
2. C[C@H]1CN(C(=O)CNc2cccc3c2C(=O)N(C2CCC(=O)NC2=O)C3=O)CCN1c1ccc(Nc2cc(-c3ccnc(N4CCn5c(cc6c5CC(C)(C)C6)C4=O)c3CO)cn(C)c2=O)nc1 (stereo partly drawn)
3. Cn1cc(-c2ccnc(-n3ncc4cc(C(C)(C)C)cc(F)c4c3=O)c2CO)cc(Nc2cc3n(n2)CCN(C(=O)CCNc2cccc4c2C(=O)N(C2CCC(=O)NC2=O)C4=O)C3)c1=O (stereo not drawn)
4. C[C@H]1CN(C(=O)CCOCCOCCOCCNc2cccc3c2C(=O)N(C2CCC(=O)NC2=O)C3=O)CCN1c1ccc(Nc2cc(-c3ccnc(N4CCn5c(cc6c5CC(C)(C)C6)C4=O)c3CO)cn(C)c2=O)nc1 (stereo partly drawn)
5. C[C@H]1CN(C(=O)CCCNc2cccc3c2C(=O)N(C2CCC(=O)NC2=O)C3=O)CCN1c1ccc(Nc2cc(-c3ccnc(N4CCn5c(cc6c5CC(C)(C)C6)C4=O)c3CO)cn(C)c2=O)nc1 (stereo partly drawn)
6. C[C@H]1CN(C(=O)CCOCCOCCOCCOCCNc2cccc3c2C(=O)N(C2CCC(=O)NC2=O)C3=O)CCN1c1ccc(Nc2cc(-c3ccnc(N4CCn5c(cc6c5CC(C)(C)C6)C4=O)c3CO)cn(C)c2=O)nc1 (stereo partly drawn)
7. Cn1cc(-c2ccnc(-n3ncc4cc(C(C)(C)C)cc(F)c4c3=O)c2CO)cc(Nc2cc3n(n2)CCN(C(=O)CCCNc2cccc4c2C(=O)N(C2CCC(=O)NC2=O)C4=O)C3)c1=O (stereo not drawn)
8. Cn1cc(-c2ccnc(-n3ncc4cc(C(C)(C)C)cc(F)c4c3=O)c2CO)cc(Nc2cc3n(n2)CCN(C(=O)CCCCc2cccc4c2CN(C2CCC(=O)NC2=O)C4=O)C3)c1=O (stereo not drawn)

stdout:
10 to 1000 nM
1 to 10 nM
10 to 1000 nM
1 to 10 nM
1 to 10 nM
1 to 10 nM
1 to 10 nM
1 to 10 nM

# batch size: 2; output DC50 per entry
1. C[C@@H]1CN(C(=O)CCCN2CCN(c3ccc4c(c3)C(=O)N(C3CCC(=O)NC3=O)C4=O)CC2)CCN1c1ccc(Nc2cc(-c3ccnc(N4CCn5c(cc6c5CC(C)(C)C6)C4=O)c3CO)cn(C)c2=O)nc1 (stereo partly drawn)
2. CN[C@@H](C)C(=O)N[C@H](C(=O)N1CCC[C@H]1c1nc(C(=O)c2cccc(OCCOCCC(=O)N3CCn4nc(Nc5cc(-c6ccnc(-n7ncc8cc(C(C)(C)C)cc(F)c8c7=O)c6CO)cn(C)c5=O)cc4C3)c2)cs1)C1CCCCC1

stdout:
["1 to 10 nM", "10 to 1000 nM"]
